Listing: IC50 of selected binders
study.system: T1, Terbium (Tb) labeled-SNAP tagged ROBO2 expressed on HEK293 cells (Homo sapiens (Human), UniProt Q9HCK4 22-1378, terbium label on the SNAP tag)
T1 construct: also called Tb-labeled ROBO2 cells; ROBO2 expressing cells; not shown: SNAP tag
T1 sequence: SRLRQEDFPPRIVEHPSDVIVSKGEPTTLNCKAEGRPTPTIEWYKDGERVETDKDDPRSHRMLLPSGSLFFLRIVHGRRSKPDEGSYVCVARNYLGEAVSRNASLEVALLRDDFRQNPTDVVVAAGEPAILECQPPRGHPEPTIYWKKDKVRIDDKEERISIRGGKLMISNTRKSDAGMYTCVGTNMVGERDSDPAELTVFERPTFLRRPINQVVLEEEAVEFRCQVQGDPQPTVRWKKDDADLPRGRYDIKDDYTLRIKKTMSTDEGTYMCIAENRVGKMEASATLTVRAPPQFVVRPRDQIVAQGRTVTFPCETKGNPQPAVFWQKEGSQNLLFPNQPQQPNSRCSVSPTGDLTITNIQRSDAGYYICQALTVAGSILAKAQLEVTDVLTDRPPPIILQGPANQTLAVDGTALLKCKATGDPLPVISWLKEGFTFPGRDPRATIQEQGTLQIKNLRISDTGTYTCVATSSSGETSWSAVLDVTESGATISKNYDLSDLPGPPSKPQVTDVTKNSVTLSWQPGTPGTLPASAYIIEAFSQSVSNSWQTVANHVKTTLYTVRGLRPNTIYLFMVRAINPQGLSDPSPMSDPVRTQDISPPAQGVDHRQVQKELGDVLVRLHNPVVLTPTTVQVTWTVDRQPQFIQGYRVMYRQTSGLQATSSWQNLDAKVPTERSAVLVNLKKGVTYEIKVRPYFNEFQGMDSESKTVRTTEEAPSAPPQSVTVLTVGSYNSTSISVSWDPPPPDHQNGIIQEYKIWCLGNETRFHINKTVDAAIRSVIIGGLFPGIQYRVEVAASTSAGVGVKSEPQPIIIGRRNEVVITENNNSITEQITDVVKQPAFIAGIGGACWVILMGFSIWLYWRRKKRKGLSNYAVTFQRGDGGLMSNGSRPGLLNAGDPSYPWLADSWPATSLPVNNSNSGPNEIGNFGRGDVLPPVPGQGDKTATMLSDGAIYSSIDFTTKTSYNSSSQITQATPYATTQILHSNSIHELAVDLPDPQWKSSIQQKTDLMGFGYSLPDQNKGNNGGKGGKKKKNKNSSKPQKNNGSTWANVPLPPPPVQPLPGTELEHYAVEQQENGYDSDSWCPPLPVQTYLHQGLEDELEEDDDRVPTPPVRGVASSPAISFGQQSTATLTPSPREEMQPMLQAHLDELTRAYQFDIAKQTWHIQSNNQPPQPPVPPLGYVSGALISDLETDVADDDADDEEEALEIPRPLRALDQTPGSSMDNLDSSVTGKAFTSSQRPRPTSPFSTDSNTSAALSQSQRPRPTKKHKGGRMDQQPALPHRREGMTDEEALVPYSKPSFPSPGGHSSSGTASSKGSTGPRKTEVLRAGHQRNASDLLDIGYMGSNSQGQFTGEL
assay.details: HTRF competition, competitor d2-SLIT2-N, ROBO2 HEK293 cells
Only the number, expressed in nM, is required.

Abcs40 (antibody, human IgG1, kappa, V domains shown, chain-shuffled IgG) VH: EVQLVQSGAEVKKPGASVKVSCKASGYTFTGYYMHWVRQAPGQGLEWMGWINPKDGDTEFPQKFQGRVTMTRDTSITTAYMDLSRLRSDDTAVYYCARESGDDAFDIWGQGTMVTVSS VL: DIVMTQSPSSLSASVGDRVTITCRASQSISSYLNWYQQKPGKAPKLLIYAASSLQSGVPSRFSGSGSGTDFTLTISSLQPEDFATYYCQQSVGLFFGGGTKVEIKR = 0.048
Ab123 (antibody, human IgG1, kappa, V domains shown, full-length human IgG) VH: EVQLVQSGAEVKKPGASVKVSCKASGYTFTGYYMHWVRQAPGQGLEWMGWINPNSGATNFPQKFQGRVTMTRDTSITTAYMDLSRLRSDDTAVYYCARESGDDAFDIWGQGTMVTVSS VL: DIVMTQSPSSLSASVGDRVTITCRASQSISSYLNWYQQKPGKAPKLLIYAASSLQSGVPSRFSGSGSGTDFTLTISSLQPEDFATYYCQQSVGLFFGGGTKVEIKR = 0.26
CTIR2-13 (antibody, human IgG1, kappa, V domains shown, CDR-shuffled IgG) VH: EVQLVQSGAEVKKPGASVKVSCKASGYTFRGYAMHWVRQAPGQGLEWMGWIDPRTGLTKFPQKFQGRVTMTRDTSITTAYMDLSRLRSDDTAVYYCARESGDDAFDIWGQGTMVTVSS VL: DIVMTQSPSSLSASVGDRVTITCRASQKISSYLNWYQQKPGKAPKLLIYAASSLQYGVPSRFSGSGSGTDFTLTISSLQPEDFATYYCQQSYSTSFGGGTKVEIKR = 0.055
CTIR2-6 (antibody, human IgG1, kappa, V domains shown, CDR-shuffled IgG) VH: EVQLVQSGAEVKKPGASVKVSCKASGYTFTGYYMHWVRQAPGQGLEWMGWINPKSGATNFPQKFQGRVTMTRDTSITTAYMDLSRLRSDDTAVYYCARESGDDAFDIWGQGTMVTVSS VL: DIVMTQSPSSLSASVGDRVTITCRASQKISSYLNWYQQKPGKAPKLLIYAASSLQSGVPSRFSGSGSGTDFTLTISSLQPEDFATYYCQQSVGLFFGGGTKVEIKR = 0.067

QUERY: For the binder CTIR2-16 (antibody, human IgG1, kappa, V domains shown, CDR-shuffled IgG) VH: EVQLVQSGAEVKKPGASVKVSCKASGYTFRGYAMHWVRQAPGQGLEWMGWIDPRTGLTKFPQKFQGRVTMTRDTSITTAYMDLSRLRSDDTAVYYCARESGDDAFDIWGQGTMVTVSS VL: DIVMTQSPSSLSASVGDRVTITCRASQKISSYLNWYQQKPGKAPKLLIYAASSLQYGVPSRFSGSGSGTDFTLTISSLQPEDFATYYCQQSVGLFFGGGTKVEIKR , what IC50 is on record?
RESULT: 0.056

The origin of these recorded values is patent US20200157212A1.
